tested on: Plasmodium falciparum; experiment: Antimalarial activity against Plasmodium falciparum expressing PKG T618Q mutant infected in human erythrocytes assessed as reduction in parasitemia incubated for 72 hrs by SYBR green I and Mitotracker deep red dye based flow cytometric analysis; format: functional, organism-based; conditions: Plasmodium falciparum, 72 h
Would you kindly list EC50 for each of these molecules?

// CC(=O)O.CN1CCC(c2[nH]c(-c3ccc(F)cc3)c(-c3ccncc3)c2CO)CC1 : EC50 value = 4190 nM

Lab note: measured EC50 of CN1CCC(c2cc(-c3ccnc(N)c3)c(-c3ccc(F)cc3)[nH]2)CC1.Cl.Cl was 600 nM

Short answer for COc1ccc(-c2[nH]c(C3CCN(C)CC3)cc2-c2ccncc2)cc1.Cl.Cl : EC50 was 1090 nM

GET /value?item= CN1C[C@@H]2C(c3cc(-c4ccncc4)c(-c4ccc(F)cc4)[nH]3)[C@@H]2C1.Cl.Cl (stereo partly specified) &field=EC50 returns 900 nM

Field EC50 (entry CN1CCC(c2cc(-c3ccncc3)c(-c3ccc(F)cc3)n2C)CC1.Cl.Cl ) reads 690 nM

Field EC50 (entry CC(=O)O.CC(O)c1c(C2CCN(C)CC2)[nH]c(-c2ccc(F)cc2)c1-c1ccncc1 (stereo unspecified) ) reads 3750 nM

* * *

Can you tell me Papp at 2 h for the items I'm about to list?
assay: Apparent permeability in human Caco-2 cells incubated for 120 mins by LC-MS/MS analysis; type: ADME, cell-based

Briefly, Papp at 2 h measured for C[C@H]1CN(C)CC[C@@H]1c1cc(-c2ccncc2)c(-c2ccc(F)cc2)[nH]1.Cl.Cl : 226 nm/s

Reported Papp at 2 h for C[C@@H]1CN(C)CCC1c1cc(-c2ccncc2)c(-c2ccc(F)cc2)[nH]1.Cl.Cl (single isomer, unassigned) was 221 nm/s

// recorded Papp at 2 h for C[C@@H]1CN(C)CC[C@@H]1c1cc(-c2ccncc2)c(-c2ccc(F)cc2)[nH]1.Cl.Cl : 201 nm/s

# Papp at 2 h of CC1CN(C)CC[C@H]1c1cc(-c2ccncc2)c(-c2ccc(F)cc2)[nH]1.Cl.Cl (single isomer, unassigned) = 170 nm/s

* * *

experiment: Protein binding in CD-1 mouse liver microsomes assessed as unbound fraction incubated for 17 hrs by LC-MS analysis; format: ADME, Microsome
Quantity: fraction unbound at 17 h
Answer as a number with no unit attached.

get_value(item= C[C@@H]1CN(C)CCC1c1cc(-c2ccncc2)c(-c2ccc(F)cc2)[nH]1.Cl.Cl (single isomer, unassigned) , readout=fraction unbound at 17 h) returns 0.518

# fraction unbound at 17 h (compound: CC1CN(C)CC[C@H]1c1cc(-c2ccncc2)c(-c2ccc(F)cc2)[nH]1.Cl.Cl (single isomer, unassigned) ) is 0.587

Quick note, fraction unbound at 17 h for C[C@H]1CN(C)CC[C@@H]1c1cc(-c2ccncc2)c(-c2ccc(F)cc2)[nH]1.Cl.Cl landed at 0.63

// fraction unbound at 17 h lookup, compound = C[C@@H]1CN(C)CC[C@@H]1c1cc(-c2ccncc2)c(-c2ccc(F)cc2)[nH]1.Cl.Cl , result: 0.502

* * *

For each entry below, report its half-life value.
test: Half life in human liver microsomes in presence of NADPH incubated for 60 mins by LC-MS/MS analysis; type: ADME, Microsome
Write the value in min as a bare number.

Input C[C@@H]1CN(C)CC[C@@H]1c1cc(-c2ccncc2)c(-c2ccc(F)cc2)[nH]1.Cl.Cl . Output half-life: 35.7

For CC1CN(C)CC[C@H]1c1cc(-c2ccncc2)c(-c2ccc(F)cc2)[nH]1.Cl.Cl (single isomer, unassigned) the molecule record lists half-life as 57.5
